# system: Recombinant purified human BTK (Homo sapiens)
# Sequence (Q06187 whole entry): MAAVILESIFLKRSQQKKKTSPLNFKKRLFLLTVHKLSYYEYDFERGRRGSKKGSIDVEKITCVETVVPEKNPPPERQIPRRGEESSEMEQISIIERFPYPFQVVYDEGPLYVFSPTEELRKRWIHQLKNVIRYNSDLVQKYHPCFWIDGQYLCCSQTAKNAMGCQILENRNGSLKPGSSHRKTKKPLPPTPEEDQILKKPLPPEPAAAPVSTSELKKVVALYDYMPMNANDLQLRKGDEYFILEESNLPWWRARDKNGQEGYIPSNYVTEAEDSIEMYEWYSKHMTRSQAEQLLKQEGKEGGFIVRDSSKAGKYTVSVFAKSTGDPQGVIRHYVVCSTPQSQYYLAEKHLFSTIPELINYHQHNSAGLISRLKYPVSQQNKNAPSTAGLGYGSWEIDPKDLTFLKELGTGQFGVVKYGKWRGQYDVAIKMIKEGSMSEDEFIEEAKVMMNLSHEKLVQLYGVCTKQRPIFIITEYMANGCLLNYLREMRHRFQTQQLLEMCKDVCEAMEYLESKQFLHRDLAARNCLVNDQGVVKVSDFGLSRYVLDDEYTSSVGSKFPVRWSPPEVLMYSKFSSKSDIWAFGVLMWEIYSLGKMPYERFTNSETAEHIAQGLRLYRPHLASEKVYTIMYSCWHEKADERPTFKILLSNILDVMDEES
# test.summary: BTK kinase inhibitory activity, ADP-Glo kinase assay (Promega V9071)
# study.conditions: ATP 10 uM, 8 ng BTK per reaction, 1 hour 30 °C, chemiluminescence
pIC50: −log10 of the molar value. Where a name gives a salt, the structure may show the parent alone.
Recorded pIC50 by entry
reported.property: pIC50

In [3]: df
Out[3]:
                                    compound  result_number
 0  C=CC(=O)N1CCC[C@@H](N(C)c2nc(Nc3cnoc3)nc3[nH]nc(Cl)c23)C1           7.95
 1  CCn1cc(Nc2nc(N[C@@H]3CCCN(C(=O)/C(C#N)=C/C4CC4)C3)c3cc[nH]c3n2)cn1           8.66
 2  C=CC(=O)N1CCC[C@@H](Nc2nc(Nc3cnoc3)nc3[nH]ccc23)C1           7.86
 3  C=CC(=O)N1CCC[C@@H](Nc2nc(Nc3ccc(N4CCOCC4)cc3F)nc3[nH]cc(Cl)c23)C1           6.15
 4  C=CC(=O)N1CCC[C@@H](Nc2nc(Nc3cnn(C4CC4)c3)nc3[nH]cc(C)c23)C1           7.94
 5  C=CC(=O)N1CCC[C@@H](Nc2nc(Nc3cnn(C4CC4)c3)nc3[nH]ncc23)C1           8.77
 6  C=CC(=O)N1CCC[C@@H](Nc2nc(Nc3ccc(N(C)C)cc3)nc3[nH]ccc23)C1           7.69
 7  C=CC(=O)N1CCC[C@@H](Oc2nc(Nc3ccc(N4CCOCC4)cc3)nc3[nH]ccc23)C1           8.35
 8  C=CC(=O)N1CCC[C@@H](Nc2nc(Nc3cnn(CC)c3)nc3[nH]nc(Cl)c23)C1 [Example 91, hydrochloride]           8.96
 9  C=CC(=O)N1CCC[C@@H](Nc2nc(Nc3ccc(OCCN(CC)CC)cc3)nc3[nH]ccc23)C1           7.85
10  C=CC(=O)N1CCC[C@@H](Oc2nc(Nc3cnn(CC(F)F)c3)nc3[nH]cc(C#N)c23)C1           8.80
11  C=CC(=O)N1CCC[C@@H](Nc2nc(Nc3cnn(CC(F)F)c3)nc3[nH]ccc23)C1           8.14
12  N#C/C(=C\C1CCCC1)C(=O)N1CCC[C@@H](Nc2nc(Nc3cnn(C4CC4)c3)nc3[nH]nc(Cl)c23)C1           8.72
13  C=CC(=O)N1CCC[C@@H](Sc2nc(Nc3cnn(CC)c3)nc3[nH]nc(Cl)c23)C1           8.89
14  C=CC(=O)N1CC[C@@H](C)[C@@H](N(C)c2nc(Nc3cnn(CC)c3)nc3[nH]nc(Cl)c23)C1           8.35
